Test system: XF498
Test: NCI tumour cell line growth inhibition, 48 h
Calls of active or inactive are those of the source. Cut-off read from the data, not from the text of the source: active = GI50 up to about 1.1 µM and inactive = higher.
Outcome codes: yes (active), no (inactive)

[[record]]
molecule = "CCN1CCC(O)(c2ccc(Cl)cc2)C(C(=O)c2ccc(Cl)cc2)C1 (stereo unspecified)"
label_class = "no"

[[record]]
molecule = "COC(=O)C12CC3CC(C1)CC(C(=O)OC)(C3)C2"
label_class = "no"

[[record]]
molecule = "O=C1[C@@H]2C3SC(c4ccccc43)[C@@H]2C(=O)N1c1ccccc1"
label_class = "no"

[[record]]
molecule = "O=C(N/N=C/c1ccccc1O)c1cccc([N+](=O)[O-])c1"
label_class = "no"

[[record]]
molecule = "COc1ccc(C2N3CCCCC3[C@@H]3c4[nH]c5ccccc5c4CCN23)c(OC)c1 (stereo partly specified)"
label_class = "no"

[[record]]
molecule = "COc1ccc2nc3ccccc3c(NCCN(CCCl)CCCl)c2c1"
label_class = "yes"

[[record]]
molecule = "COc1cccc(-c2cc(=O)c3cc(C)c(C)c(C(=O)O)c3o2)c1"
label_class = "no"

[[record]]
molecule = "CCOC(=O)Cc1nc2ccc3c(c2nc1O)C(=O)c1ccccc1C3=O"
label_class = "no"

[[record]]
molecule = "Cc1ccccc1C(=O)Oc1ccc(Oc2ccccc2)cc1"
label_class = "no"

[[record]]
molecule = "O=C1NC(c2ccccc2)(c2ccccc2)C(=O)N1CCCCCCN1C(=O)NC(c2ccccc2)(c2ccccc2)C1=O"
label_class = "no"

[[record]]
molecule = "COc1cc2c(c(OC)c1OC)-c1ccc(SC)c(=O)cc1C(CC(=O)Oc1cccc(F)c1)C2 (stereo unspecified)"
label_class = "yes"

